- Measurement Target: matriptase (Homo sapiens, UniProt Q9Y5Y6)
- Construct: purchased R&D Systems 3946-SEB
- Sequence (Q9Y5Y6 615-855 limits assumed): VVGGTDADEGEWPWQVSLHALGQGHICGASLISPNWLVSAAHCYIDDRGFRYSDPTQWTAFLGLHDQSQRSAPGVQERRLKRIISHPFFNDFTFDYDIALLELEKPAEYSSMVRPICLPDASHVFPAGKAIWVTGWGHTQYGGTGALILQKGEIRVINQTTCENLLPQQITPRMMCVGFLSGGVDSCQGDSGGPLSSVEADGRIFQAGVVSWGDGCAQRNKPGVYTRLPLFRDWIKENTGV
- Test: FRET peptide cleavage efficiency with matriptase
- Type: biochemical
- Condition Notes: t = 120 min; 200 uM linker, 1 ug/ml protease, 37° C., buffer B pH 9.0
Square brackets hold non-standard residues; d marks the D form. Ends that are not written are not given here. Tyr(3-NO2) = N[C@@H](Cc1ccc(O)c([N+](=O)[O-])c1)C(=O)O; 2Abz = Nc1ccccc1C(=O)O
Measured Metric: % cleavage Matriptase t = 120 min
# do not omit the unit; it follows the number

| Substance | Measurement Target | Measured Metric | Reported |
| --- | --- | --- | --- |
| KSKQHSL ([2Abz]KSKQHSL[Tyr(3-NO2)]-NH2) [LNK077] | matriptase (Homo sapiens, UniProt Q9Y5Y6) | % cleavage Matriptase t = 120 min | 0% |
| SGRPLGYFGKL ([2Abz]SGRPLGYFGKL[Tyr(3-NO2)]-NH2) [LNK056] | matriptase (Homo sapiens, UniProt Q9Y5Y6) | % cleavage Matriptase t = 120 min | 0% |
| RGRRPLGLAG ([2Abz]RGRRPLGLAG[Tyr(3-NO2)]-NH2) [LNK049] | matriptase (Homo sapiens, UniProt Q9Y5Y6) | % cleavage Matriptase t = 120 min | 100% |
| SGRVLPYAMTA ([2Abz]SGRVLPYAMTA[Tyr(3-NO2)]-NH2) [LNK024] | matriptase (Homo sapiens, UniProt Q9Y5Y6) | % cleavage Matriptase t = 120 min | 98% |
| HSSKLQL ([2Abz]HSSKLQL[Tyr(3-NO2)]-NH2) [LNK078] | matriptase (Homo sapiens, UniProt Q9Y5Y6) | % cleavage Matriptase t = 120 min | 0% |
| RYGKSAPLGLAG ([2Abz]RYGKSAPLGLAG[Tyr(3-NO2)]-NH2) [LNK027] | matriptase (Homo sapiens, UniProt Q9Y5Y6) | % cleavage Matriptase t = 120 min | 98% |
| SGRVANYFGKL ([2Abz]SGRVANYFGKL[Tyr(3-NO2)]-NH2) [LNK054] | matriptase (Homo sapiens, UniProt Q9Y5Y6) | % cleavage Matriptase t = 120 min | 0% |
| RQRRSVVGG ([2Abz]RQRRSVVGG[Tyr(3-NO2)]-NH2) [LNK029] | matriptase (Homo sapiens, UniProt Q9Y5Y6) | % cleavage Matriptase t = 120 min | 98% |

What is its % cleavage Matriptase t = 120 min for matriptase (Homo sapiens, UniProt Q9Y5Y6)? Entry: KWGKSAPLGLAG ([2Abz]KWGKSAPLGLAG[Tyr(3-NO2)]-NH2) [LNK026]
86%

Which % cleavage Matriptase t = 120 min is reported with matriptase (Homo sapiens, UniProt Q9Y5Y6) for this entry: SGRVLTLRKAGPAGLVG ([2Abz]SGRVLTLRKAGPAGLVG[Tyr(3-NO2)]-NH2) [LNK011] ?
99%

GET /values?readout=% cleavage Matriptase t = 120 min&system=matriptase (Homo sapiens, UniProt Q9Y5Y6)&item= RGRRPLGLAGGSG ([2Abz]RGRRPLGLAGGSG[Tyr(3-NO2)]-NH2) [LNK051]
100%

# get_value(readout= % cleavage Matriptase t = 120 min, system= matriptase (Homo sapiens, UniProt Q9Y5Y6)) for SSRGPYMLQG ([2Abz]SSRGPYMLQG[Tyr(3-NO2)]-NH2) [LNK022]
11%

* * *

Listed here are substances together with their documented % cleavage Matriptase t = 120 min.
- Measurement Target: matriptase (Homo sapiens)
- Construct: purchased R&D Systems 3946-SEB
- Sequence (Q9Y5Y6 615-855 limits assumed): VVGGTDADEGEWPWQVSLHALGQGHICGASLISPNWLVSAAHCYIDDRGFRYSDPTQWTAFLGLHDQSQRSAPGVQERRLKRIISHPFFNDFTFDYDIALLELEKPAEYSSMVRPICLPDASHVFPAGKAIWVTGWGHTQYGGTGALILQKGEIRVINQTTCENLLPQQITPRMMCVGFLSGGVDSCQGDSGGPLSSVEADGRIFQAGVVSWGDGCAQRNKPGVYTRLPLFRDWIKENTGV
- Test: FRET peptide cleavage efficiency with matriptase
- Type: biochemical
- Condition Notes: t = 120 min; standard conditions (Table 8)
Square brackets hold non-standard residues; d marks the D form. Ends that are not written are not given here. Tyr(3-NO2) = N[C@@H](Cc1ccc(O)c([N+](=O)[O-])c1)C(=O)O; Nle = CCCC[C@H](N)C(=O)O; 2Abz = Nc1ccccc1C(=O)O
Note to self: number, then unit, no commentary.

Sample answers from the record:
| Substance | Measurement Target | Measured Metric | Reported |
| --- | --- | --- | --- |
| RGRRGP ([2Abz]RGRRGP[Tyr(3-NO2)]-NH2) [LNK048] | matriptase (Homo sapiens) | % cleavage Matriptase t = 120 min | 100% |
| RGRKSPQPLVD ([2Abz]RGRKSPQPLVD[Tyr(3-NO2)]-NH2) [LNK040] | matriptase (Homo sapiens) | % cleavage Matriptase t = 120 min | 100% |
| SGRVAPYMLQG ([2Abz]SGRVAPYMLQG[Tyr(3-NO2)]-NH2) [LNK042] | matriptase (Homo sapiens) | % cleavage Matriptase t = 120 min | 100% |
| RQRKVANLVG ([2Abz]RQRKVANLVG[Tyr(3-NO2)]-NH2) [LNK032] | matriptase (Homo sapiens) | % cleavage Matriptase t = 120 min | 100% |
| SGRVQPLVD (not fully specified (N-terminus, C-terminus)) [LNK047] | matriptase (Homo sapiens) | % cleavage Matriptase t = 120 min | 33% |
| SGRVAPQPLVD (not fully specified (N-terminus, C-terminus)) [LNK046] | matriptase (Homo sapiens) | % cleavage Matriptase t = 120 min | 91% |
| SGRVAPY-Nle-LQG ([2Abz]SGRVAPY[Nle]LQG[Tyr(3-NO2)]-NH2) [LNK043] | matriptase (Homo sapiens) | % cleavage Matriptase t = 120 min | 100% |
| SGRVYMLQG ([2Abz]SGRVYMLQG[Tyr(3-NO2)]-NH2) [LNK044] | matriptase (Homo sapiens) | % cleavage Matriptase t = 120 min | 0% |

Returns the measured % cleavage Matriptase t = 120 min for the input substance. Input: RGRKSPANLVG ([2Abz]RGRKSPANLVG[Tyr(3-NO2)]-NH2) [LNK034]
100%

Can you look up the measured % cleavage Matriptase t = 120 min of RGRKSPYMLQG ([2Abz]RGRKSPYMLQG[Tyr(3-NO2)]-NH2) [LNK037] for me?
100%

% cleavage Matriptase t = 120 min lookup needed for RGRKSPY-Nle-LQG ([2Abz]RGRKSPY[Nle]LQG[Tyr(3-NO2)]-NH2) [LNK038] , thanks.
100%

What value of % cleavage Matriptase t = 120 min has been reported for the following substance? RGRKPQPLVD ([2Abz]RGRKPQPLVD[Tyr(3-NO2)]-NH2) [LNK039]
100%

Would you kindly share the measured % cleavage Matriptase t = 120 min for RGRKSQPLVD ([2Abz]RGRKSQPLVD[Tyr(3-NO2)]-NH2) [LNK041] ?
100%

Can you look up the measured % cleavage Matriptase t = 120 min of RGRKPYMLQG ([2Abz]RGRKPYMLQG[Tyr(3-NO2)]-NH2) [LNK035] for me?
100%

Can you look up the measured % cleavage Matriptase t = 120 min of RGRRVANLVG ([2Abz]RGRRVANLVG[Tyr(3-NO2)]-NH2) [LNK033] for me?
100%

State the recorded % cleavage Matriptase t = 120 min for this entry: RGRKPY-Nle-LQG ([2Abz]RGRKPY[Nle]LQG[Tyr(3-NO2)]-NH2) [LNK036]
100%

# % cleavage Matriptase t = 120 min lookup, item RGRKVANLVG ([2Abz]RGRKVANLVG[Tyr(3-NO2)]-NH2) [LNK031]
100%

* * *

- Measurement Target: MMP-9 (Homo sapiens, UniProt P14780)
- Construct: purchased SIGMA PF024
- Sequence (P14780 94-707): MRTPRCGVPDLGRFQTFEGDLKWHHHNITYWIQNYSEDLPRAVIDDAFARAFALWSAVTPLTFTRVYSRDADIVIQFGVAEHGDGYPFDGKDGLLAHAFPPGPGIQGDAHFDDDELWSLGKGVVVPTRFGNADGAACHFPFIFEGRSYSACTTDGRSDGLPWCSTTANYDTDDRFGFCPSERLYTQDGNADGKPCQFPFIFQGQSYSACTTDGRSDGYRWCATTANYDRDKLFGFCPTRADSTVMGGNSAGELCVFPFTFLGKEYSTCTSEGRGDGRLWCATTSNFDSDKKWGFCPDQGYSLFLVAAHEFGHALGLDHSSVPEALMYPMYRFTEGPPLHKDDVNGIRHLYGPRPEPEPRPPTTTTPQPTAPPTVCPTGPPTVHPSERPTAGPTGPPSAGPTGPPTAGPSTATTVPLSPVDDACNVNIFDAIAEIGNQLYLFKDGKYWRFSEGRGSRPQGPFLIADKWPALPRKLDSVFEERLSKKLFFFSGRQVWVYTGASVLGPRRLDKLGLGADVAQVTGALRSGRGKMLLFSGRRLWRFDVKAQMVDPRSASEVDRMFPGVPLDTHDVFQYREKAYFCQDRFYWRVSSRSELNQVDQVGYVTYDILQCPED
- Test: FRET peptide cleavage efficiency with MMP-9 (standard pH 7.5; also pH 6.5)
- Format: biochemical
- Condition Notes: t = 15 min (Table 9)
Square brackets hold non-standard residues; d marks the D form. Ends that are not written are not given here. Tyr(3-NO2) = N[C@@H](Cc1ccc(O)c([N+](=O)[O-])c1)C(=O)O; Nle = CCCC[C@H](N)C(=O)O; 2Abz = Nc1ccccc1C(=O)O
Measured Metric: % cleavage MMP-9 t = 15 min (%)
Numeric only. Scale: %

Worked set:
| Substance | Reported |
| --- | --- |
| RGRKPY-Nle-LQG ([2Abz]RGRKPY[Nle]LQG[Tyr(3-NO2)]-NH2) [LNK036] | 28 |
| SGRPLGYFGKL ([2Abz]SGRPLGYFGKL[Tyr(3-NO2)]-NH2) [LNK056] | 32 |
| RGRKSPQPLVD ([2Abz]RGRKSPQPLVD[Tyr(3-NO2)]-NH2) [LNK040] | 25 |
| SGRVQPLVD (not fully specified (N-terminus, C-terminus)) [LNK047] | 1 |

# value lookup — system MMP-9 (Homo sapiens, UniProt P14780), readout % cleavage MMP-9 t = 15 min, item SGRVAPY-Nle-LQG ([2Abz]SGRVAPY[Nle]LQG[Tyr(3-NO2)]-NH2) [LNK043]
32
